Molecular target: UniProt:P08922
Sequence (P08922 28-2347): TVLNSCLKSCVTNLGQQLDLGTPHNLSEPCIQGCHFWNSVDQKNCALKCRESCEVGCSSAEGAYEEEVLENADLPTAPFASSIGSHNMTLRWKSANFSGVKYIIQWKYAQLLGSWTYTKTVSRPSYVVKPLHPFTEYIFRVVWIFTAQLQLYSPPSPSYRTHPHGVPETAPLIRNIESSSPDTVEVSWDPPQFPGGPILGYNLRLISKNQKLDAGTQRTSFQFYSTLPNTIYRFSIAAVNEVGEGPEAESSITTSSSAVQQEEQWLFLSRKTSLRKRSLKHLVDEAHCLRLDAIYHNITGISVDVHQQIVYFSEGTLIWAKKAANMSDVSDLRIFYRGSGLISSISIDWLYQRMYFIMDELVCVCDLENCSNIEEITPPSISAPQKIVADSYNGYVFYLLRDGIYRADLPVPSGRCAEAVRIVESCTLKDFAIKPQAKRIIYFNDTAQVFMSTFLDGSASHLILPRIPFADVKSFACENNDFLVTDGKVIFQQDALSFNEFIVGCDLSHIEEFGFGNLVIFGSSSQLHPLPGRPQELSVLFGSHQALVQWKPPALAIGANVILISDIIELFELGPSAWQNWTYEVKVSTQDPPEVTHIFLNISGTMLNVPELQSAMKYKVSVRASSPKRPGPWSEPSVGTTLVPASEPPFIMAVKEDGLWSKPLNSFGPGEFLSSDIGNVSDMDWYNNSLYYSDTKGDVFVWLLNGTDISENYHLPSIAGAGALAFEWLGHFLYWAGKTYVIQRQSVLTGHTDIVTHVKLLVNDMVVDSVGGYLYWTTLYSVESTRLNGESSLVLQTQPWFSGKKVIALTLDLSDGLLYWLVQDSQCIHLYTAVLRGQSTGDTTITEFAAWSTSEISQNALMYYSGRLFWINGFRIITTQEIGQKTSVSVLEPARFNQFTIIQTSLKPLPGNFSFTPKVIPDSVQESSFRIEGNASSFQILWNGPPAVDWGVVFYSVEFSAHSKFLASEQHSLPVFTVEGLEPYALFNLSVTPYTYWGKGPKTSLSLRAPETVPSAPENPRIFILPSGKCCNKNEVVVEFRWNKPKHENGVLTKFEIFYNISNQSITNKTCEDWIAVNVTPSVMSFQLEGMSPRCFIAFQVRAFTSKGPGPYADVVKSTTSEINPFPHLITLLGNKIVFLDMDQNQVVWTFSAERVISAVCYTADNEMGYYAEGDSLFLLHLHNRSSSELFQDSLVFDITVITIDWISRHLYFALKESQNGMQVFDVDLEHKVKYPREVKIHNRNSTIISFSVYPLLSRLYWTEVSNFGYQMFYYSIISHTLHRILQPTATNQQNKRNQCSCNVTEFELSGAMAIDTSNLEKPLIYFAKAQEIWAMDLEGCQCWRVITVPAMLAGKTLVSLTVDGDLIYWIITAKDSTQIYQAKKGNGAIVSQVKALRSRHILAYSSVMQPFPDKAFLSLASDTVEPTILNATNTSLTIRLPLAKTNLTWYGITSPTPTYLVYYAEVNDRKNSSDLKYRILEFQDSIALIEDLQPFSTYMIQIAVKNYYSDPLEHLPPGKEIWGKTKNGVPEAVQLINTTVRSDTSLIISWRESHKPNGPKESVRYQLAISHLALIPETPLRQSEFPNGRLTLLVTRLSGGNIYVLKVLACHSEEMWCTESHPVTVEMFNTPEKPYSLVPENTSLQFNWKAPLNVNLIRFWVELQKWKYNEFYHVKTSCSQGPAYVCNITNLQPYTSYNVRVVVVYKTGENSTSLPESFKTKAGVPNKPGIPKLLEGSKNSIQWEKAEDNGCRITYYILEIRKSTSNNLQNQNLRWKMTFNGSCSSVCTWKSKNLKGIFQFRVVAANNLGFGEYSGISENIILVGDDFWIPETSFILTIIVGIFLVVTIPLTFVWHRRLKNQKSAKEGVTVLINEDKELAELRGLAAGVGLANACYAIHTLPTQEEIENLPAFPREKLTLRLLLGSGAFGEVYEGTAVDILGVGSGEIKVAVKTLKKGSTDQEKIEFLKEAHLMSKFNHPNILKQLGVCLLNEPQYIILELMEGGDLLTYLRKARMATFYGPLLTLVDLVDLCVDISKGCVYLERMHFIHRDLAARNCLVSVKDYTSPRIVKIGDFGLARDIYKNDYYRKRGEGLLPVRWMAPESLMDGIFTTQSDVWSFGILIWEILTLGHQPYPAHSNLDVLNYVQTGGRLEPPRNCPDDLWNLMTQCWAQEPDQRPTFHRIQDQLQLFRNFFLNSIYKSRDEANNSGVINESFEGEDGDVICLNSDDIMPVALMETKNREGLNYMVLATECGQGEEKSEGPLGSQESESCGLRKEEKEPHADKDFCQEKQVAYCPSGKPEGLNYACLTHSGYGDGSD
Experiment: In vitro ROS enzymatic reaction assay (HTRF, Cisbio)
Assay type: biochemical
Design: ROS or EGFR enzyme, 0.008 ng/ul
Conditions: ROS kinase, compound at 5 uM; read-out: Kinase Inhib. 5 uM (%)
measuredAttribute: inhibition at 5 µM (%)

{"compound": "Cc1ccc(CNC(=O)c2cccc(Nc3nccc(Nc4ccc5ncsc5c4)n3)c2)o1 [drawing 282]", "inhibition at 5 µM (%)": 99.1}
{"compound": "CC(C)c1nc(Nc2ccc(C(=O)N3CCCC3)cc2)nc(Nc2ccc3ncsc3c2)n1 [drawing 320]", "inhibition at 5 µM (%)": 92.5}
{"compound": "Cc1cccc(Nc2nccc(Nc3cccc(C(=O)NCCN4CCOCC4)c3)n2)c1 [drawing 244]", "inhibition at 5 µM (%)": 98.4}
{"compound": "O=c1c(O)c(-c2ccc(O)c(O)c2)oc2cc(O)cc(O)c12 [drawing 269]", "inhibition at 5 µM (%)": 99.6}
